# credit: patent US20200148774A1

# Target entity: T1, recombinant human CLL-1 extracellular domain (ECD, amino acids 65-265) fused to an N-terminal Flag (human, UniProt Q5QGZ9 65-265)
# T1 construct: The construct and the K244Q SNP are stated for the immunogen; they are not written as a piece; also called huCLL-1-Flag; huCLL-1
# T1 chain: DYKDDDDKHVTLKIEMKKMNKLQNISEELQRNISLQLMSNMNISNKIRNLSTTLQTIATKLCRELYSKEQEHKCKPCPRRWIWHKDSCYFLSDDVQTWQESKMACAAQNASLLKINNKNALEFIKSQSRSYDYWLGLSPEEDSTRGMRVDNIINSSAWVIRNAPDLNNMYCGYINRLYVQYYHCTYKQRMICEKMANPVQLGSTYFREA
# Assay text: SPR (Biacore), chimeric IgG captured by anti-human IgG, CLL-1 as analyte
Experimental endpoint: pKd
Give bare numbers, as −log10 of the molar value.

Data request: Which value of pKd has been reported for ch21C9 (antibody, V domains shown, chimeric version of m21C9, human IgG; also called chimeric 21C9; Chimeric 21C9) VH: EVQLQQSGPELVKPGASVKMSCKASGYTFTDYYLDWVKQSHGESFEWIGRVNPYNGGTIYNQKFKGKATLTVDKSSSTAYMDLNSLTSEDSAVYYCARDHYRYDPLLDYWGQGTTLTVSS VL: DIQMTQSHKFMSTSVGDRVSITCKASQDVSTAVAWFQQKPGQSPKLLIYSPSYRYTGVPDRFTGSGSGTDFTFTISSVQAEDLAVYYCQQLYSTPYTFGGGTKLEIK in the records?
Data returned: 8.01
